Item-by-item account of log10(Trimeric HA Binding: RLU)
target: recombinant soluble homotrimeric HA of A/Solomon Islands/3/06 (H1N1) (Influenza A virus A/Solomon Islands/3/2006(H1N1)); assay: HA microarray, BCC supernatant; settings: remark: other sources report otherwise
// units: RLU (pre-log); metric: Trimeric HA Binding: RLU; scale: log10

For orientation, consider the following solved cases.
Reported log10(Trimeric HA Binding: RLU) of TCN-543 (5081_G23) (antibody, V domains shown) VH: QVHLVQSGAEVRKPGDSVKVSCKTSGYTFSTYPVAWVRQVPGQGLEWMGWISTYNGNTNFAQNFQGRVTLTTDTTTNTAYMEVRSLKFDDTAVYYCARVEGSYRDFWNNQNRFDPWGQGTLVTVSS VL: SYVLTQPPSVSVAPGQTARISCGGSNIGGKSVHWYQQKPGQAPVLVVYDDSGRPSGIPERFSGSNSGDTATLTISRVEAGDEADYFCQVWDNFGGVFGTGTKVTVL : 2.71

Reported log10(Trimeric HA Binding: RLU) of TCN-550 (5096_F06) (antibody, V domains shown) VH: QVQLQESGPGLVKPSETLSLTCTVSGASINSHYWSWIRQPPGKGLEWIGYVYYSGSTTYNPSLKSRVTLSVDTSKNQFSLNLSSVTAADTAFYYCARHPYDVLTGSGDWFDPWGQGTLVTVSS VL: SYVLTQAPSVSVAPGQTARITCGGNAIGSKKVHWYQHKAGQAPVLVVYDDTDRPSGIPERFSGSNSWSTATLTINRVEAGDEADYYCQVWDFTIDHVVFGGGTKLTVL : 2.31

Reported log10(Trimeric HA Binding: RLU) of TCN-526 (5084_C17) (antibody, V domains shown) VH: EVLMVESGGGLVQPGGSVRLSCVASGFSFSSHWMTWVRQAPGKGLEWVANIEDDGGDKYYVDSVKGRFIISRDNAKNSVYLQMNSLRAEDTAVYFCARGSGSSDRSDYDPHYYYYLDVWGKGATVTVSS VL: DIQLTQSPSSLSASVGDRVTITCRASQSISRYLNWYQQKPGKAPKLLLFAASTLLDGVPSRFSGSGSGTDFTLTISSLQPEDFATYYCQRNHSPSWTFGQGTRVEIK : 2.53

Reported log10(Trimeric HA Binding: RLU) of TCN-535 (5246_P19) (antibody, V domains shown) VH: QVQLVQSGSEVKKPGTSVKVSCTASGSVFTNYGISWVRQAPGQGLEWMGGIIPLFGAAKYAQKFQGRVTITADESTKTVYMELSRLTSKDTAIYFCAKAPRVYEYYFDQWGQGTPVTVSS VL: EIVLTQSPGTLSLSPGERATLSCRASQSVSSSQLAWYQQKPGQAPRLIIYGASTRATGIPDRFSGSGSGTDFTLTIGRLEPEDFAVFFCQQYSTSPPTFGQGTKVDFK : 4.60

Reported log10(Trimeric HA Binding: RLU) of TCN-534 (5249_B02) (antibody, V domains shown) VH: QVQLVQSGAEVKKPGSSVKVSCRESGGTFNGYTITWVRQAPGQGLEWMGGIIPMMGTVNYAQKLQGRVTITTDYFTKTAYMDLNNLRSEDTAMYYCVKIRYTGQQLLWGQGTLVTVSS VL: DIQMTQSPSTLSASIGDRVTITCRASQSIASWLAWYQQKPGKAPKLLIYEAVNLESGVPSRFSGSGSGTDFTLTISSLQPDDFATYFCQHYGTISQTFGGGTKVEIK : 4.65

Reported log10(Trimeric HA Binding: RLU) of TCN-538 (3206_O17) (antibody, V domains shown) VH: QITLKESGPTLVKPTQTLTLTCVFSGFSLSITGVRVGWIRQPPGKALEWLALISWDDEKHYSPSLQSRLTITKDTSKNQVVLTMTNLDPVDTATYYCARSTDRGHVLRYFGWMLPGDAFDVWGQGTMVTVSS VL: DIVMTQSPDFLPVSLGERATINCKSSQRVLYSSNNKNYLAWYQLKPGQPPKLIIYWASTRESGVPDRFSGSGSGTEFTLTISSLQAEDVAVYYCQQYYSRPYTFGQGTKLEIK : 4.52

Reported log10(Trimeric HA Binding: RLU) of TCN-563 (5237_B21) (antibody, V domains shown) VH: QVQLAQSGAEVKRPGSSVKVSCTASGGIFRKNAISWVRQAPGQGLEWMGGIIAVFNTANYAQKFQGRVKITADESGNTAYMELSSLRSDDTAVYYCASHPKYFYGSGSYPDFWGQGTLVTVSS VL: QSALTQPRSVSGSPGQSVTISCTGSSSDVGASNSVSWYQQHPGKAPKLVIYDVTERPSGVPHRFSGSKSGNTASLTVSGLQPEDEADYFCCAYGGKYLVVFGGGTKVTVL : 4.48

Reported log10(Trimeric HA Binding: RLU) of TCN-547 (5092_F11) (antibody, V domains shown) VH: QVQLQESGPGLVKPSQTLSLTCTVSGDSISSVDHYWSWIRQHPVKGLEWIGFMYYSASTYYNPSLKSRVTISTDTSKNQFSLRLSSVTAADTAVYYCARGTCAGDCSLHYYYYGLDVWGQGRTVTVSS VL: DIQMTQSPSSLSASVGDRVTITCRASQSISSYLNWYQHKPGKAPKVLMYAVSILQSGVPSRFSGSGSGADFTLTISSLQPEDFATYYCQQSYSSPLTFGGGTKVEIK : 2.19

Others:
Reported log10(Trimeric HA Binding: RLU) of TCN-522 (3212_I12) (antibody, V domains shown) VH: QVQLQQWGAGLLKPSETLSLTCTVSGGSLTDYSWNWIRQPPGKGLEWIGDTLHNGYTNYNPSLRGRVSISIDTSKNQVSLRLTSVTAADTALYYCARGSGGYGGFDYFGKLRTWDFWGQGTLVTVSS VL: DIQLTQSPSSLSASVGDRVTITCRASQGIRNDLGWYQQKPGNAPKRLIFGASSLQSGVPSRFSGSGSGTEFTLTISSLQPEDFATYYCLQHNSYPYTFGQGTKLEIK : 4.59

Reported log10(Trimeric HA Binding: RLU) of TCN-527 (5086_C06) (antibody, V domains shown) VH: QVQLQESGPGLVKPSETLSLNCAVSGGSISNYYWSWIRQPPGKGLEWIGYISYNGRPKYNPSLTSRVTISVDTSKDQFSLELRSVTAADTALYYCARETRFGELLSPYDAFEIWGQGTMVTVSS VL: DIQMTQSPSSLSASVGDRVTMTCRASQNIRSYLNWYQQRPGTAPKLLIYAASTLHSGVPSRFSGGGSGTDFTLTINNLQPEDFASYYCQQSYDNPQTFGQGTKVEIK : 4.22

Reported log10(Trimeric HA Binding: RLU) of TCN-539 (5056_A08) (antibody, V domains shown) VH: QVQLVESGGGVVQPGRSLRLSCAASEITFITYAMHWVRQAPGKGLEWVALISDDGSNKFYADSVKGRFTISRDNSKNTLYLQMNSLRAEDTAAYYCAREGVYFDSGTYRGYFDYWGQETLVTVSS VL: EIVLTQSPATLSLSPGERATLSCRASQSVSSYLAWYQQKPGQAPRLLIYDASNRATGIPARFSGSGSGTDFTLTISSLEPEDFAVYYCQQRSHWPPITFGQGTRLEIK : 2.38
